# system: human TSLP recombinant protein (human, UniProt Q969D9 29-159, biotinylated in the blocking and cell-binding assays (sites not given))
# assay: cell-based or functional assay
measured.metric: Inhibition IC50 of STAT5 reporter gene (nM)
Express it in nM; write the number only.

{"binder": "79D6 chimeric antibody (antibody, V domains shown) VH: QVQLQQSGAELVMPGASVKMSCKASGYTFTGYWMHWVKQRPGQGLEWIGTIDNSDSDTTYNQKFKGKVTLTVDESSSTAYMQLSSLTSEDSAVYYCARSVDGYLDYWGQGTTLTVSS VL: DIQMIQSPASLSASVGETVTITCRASENIYSYLAWYQQIQGKSPQLLVYYAKTLPEGVPSRFSGSGSGTQFSLKINSLQPEDFGSYYCQHHYGTPWTFGGGTKLEIK", "units": "nM", "reported.measurement": 9.61}
{"binder": "80D12 chimeric antibody (antibody, V domains shown) VH: QVQLKQSGPQLVRPGASVKISCKASGYSFTSYWMHWVKQRPGQGLEWIGMIDPSDSETTLNQKFKDKATLTVDKSSTTAYMQLSSPTSEDSAVYYCARSLDGYYDYWGQGTTLTVSS VL: DVQMIQSPASLSASVGETVTITCRTSENIYSYLAWYQQKQGKSPQLLVYFAKTLTDGVPSRFSGSGSGTQFSLKINSLQPEDFGSYYCQHHYGTPWTFGGGTKLEIK", "units": "nM", "reported.measurement": 3.84}
{"binder": "80E11 chimeric antibody (antibody, V domains shown) VH: QVQLQQSGPQLVRPGASVKISCKASGYSFTSYWMHWVKQRPGQGLEWIGVIDPSDSETILNQKFKDKATLTVDKSSSTAYMQFSSPTSEDSAVYYCARSLDGYYDYWGQGTTLTVSS VL: DIQMTQSPASLSASVGETVTITCRAGENIYSYLAWYQQKQGKSPQLLVYNAKTLAEGVPSRFSGSASGTQFSLKINSLQPEDFGSYYCQHFWGTPWAFGGGTRLEIK", "units": "nM", "reported.measurement": 13.6}

Shift focus to the following entry.
Req: Give its Inhibition IC50 of STAT5 reporter gene value. Item: 71G4 chimeric antibody (antibody, V domains shown) VH: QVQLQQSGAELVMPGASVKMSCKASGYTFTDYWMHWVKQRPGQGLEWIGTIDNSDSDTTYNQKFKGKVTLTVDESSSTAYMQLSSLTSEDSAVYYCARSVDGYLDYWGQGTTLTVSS VL: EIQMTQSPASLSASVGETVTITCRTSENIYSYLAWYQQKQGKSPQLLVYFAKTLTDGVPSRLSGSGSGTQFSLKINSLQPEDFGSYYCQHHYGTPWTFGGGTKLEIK
Resp: 1.67
